Measured values drawn from ChEMBL document CHEMBL4513216 for this set.

Provide the recorded cytotoxicity at 10 µM for the entries that follow.
assayExplanation: Toxicity liver stage against HepG2, at 10uM
Format: cell-based
Design: test concentration 10 uM, cell line HepG2-A16-CD81EGFP
condition: human, HepG2-A16-CD81EGFP cells; read-out: INHIBITION
Answers are plain numbers, in %.

Batch: cytotoxicity at 10 µM for all items listed.
1. Cc1cc(Cl)ccc1NCc1cnn(C2CCS(=O)(=O)C2)c1 (centres undefined)
2. COCc1cc(C[C@@H]2CC[C@H](O)[C@@H](CNCC(C)C)O2)no1
3. c1ccc(-c2noc(CN3CCOC(Cn4cccn4)C3)n2)nc1 (centres undefined)
4. CO[C@@H]1c2ccccc2C2(CCN(C(=O)CNS(C)(=O)=O)CC2)[C@H]1O

1: 6.51; 2: 0.847; 3: -15; 4: 11.1

Batch: cytotoxicity at 10 µM for all items listed.
1. COC(=O)c1oc(CNC(C)(C)c2ccc3c(c2)OCO3)cc1C
2. CS(=O)(=O)NCCC(=O)NC1CCc2nccn2C1 (centres undefined)
3. COCc1cccc(NC(C(N)=O)c2ccc(Br)cc2)c1 (centres undefined)

1. 4.47
2. 9.46
3. 2.94

---

assayExplanation: Toxicity liver stage against HepG2, at 10uM
Assay type: cell-based
Set-up: test concentration 10 uM, cell line HepG2-A16-CD81EGFP
condition: human, HepG2-A16-CD81EGFP cells; read-out: INHIBITION
metricName: cytotoxicity at 10 µM (%)
Numbers only, in %.

Below, each entry is followed by its recorded cytotoxicity at 10 µM result.
COc1cccc(COCC(=O)NC(C(N)=O)c2ccccc2F)c1 (centres undefined) :: -4.55
CC(=O)c1cccc(NC(=O)NCCOCC2CC2)c1 :: 5.11
CS(=O)(=O)NCC1(O)CCCN(C(=O)CCn2cc(Cl)cn2)CC1 (centres undefined) :: -144
Cc1ccc(C(=O)N2CCC3(CCC(C(=O)NCC4CC4)O3)CC2)o1 (centres undefined) :: 6.85
Cc1ccccc1OCCN1CCN(Cc2cnn(CCO)c2)CC1 :: -17.9
CCc1nc(CC)n(CC(=O)N(C)CC(F)(F)F)n1 :: 2.19
O=C(CNc1cccc(S(=O)(=O)C(F)F)c1)NCc1ccco1 :: -40.5
c1cncc(OC[C@]23COC[C@H]2CN(Cc2ccsc2)C3)c1 :: 14.7
CC(NC(=O)OC(C)(C)C)c1nnc(S(=O)(=O)Cc2ccccc2Cl)o1 (centres undefined) :: 0.935
NC(=O)C1CCCN(c2ccc(CNC(=O)c3cc[nH]n3)cc2)C1 (centres undefined) :: -3.9

Batch: cytotoxicity at 10 µM for all items listed.
1. Cc1nc(O)cc(CCNC(=O)c2ccccc2N2CCCC2)n1
2. Clc1ccccc1C1(c2ccnc(C3CCCC3)n2)CCNCC1
3. CCCNC(=O)COc1ccc(C)cn1
4. O=C(NCCCn1ccccc1=O)c1cnc(-c2ccsc2)s1
5. O=C(c1ccncc1)N1CCc2c(COCC3CC3)cncc2C1
6. COc1ccc(F)cc1C(=O)N(C)[C@@H]1CC[C@@H](O)[C@@H]1O

1: 10.4; 2: 18.2; 3: -14.5; 4: 0.956; 5: -78.7; 6: 7.81

Batch: cytotoxicity at 10 µM for all items listed.
1. CN(Cc1cccnc1)C1CC2(CCN(c3ccccn3)CC2)C1
2. CC(=O)c1cn(CC(=O)N[C@H](C(=O)O)C(C)C)c2ccccc12
3. Cc1ccc(CNCC2Cn3nncc3CO2)o1 (centres undefined)
4. COCCCC1CCCN(C(=O)CCc2csc(N)n2)C1 (centres undefined)
5. Cc1ccccc1C1CCCN1Cc1nc2c(cnn2C)c(=O)[nH]1 (centres undefined)
6. O=C(c1ccc[nH]1)N1CCCC2(CCCN2Cc2cccnc2)C1 (centres undefined)

1. 2.86
2. -7.06
3. -113
4. -2.66
5. -12
6. 3.83

Batch: cytotoxicity at 10 µM for all items listed.
1. O=S(=O)(Cc1ccc(F)cc1)NCCc1nnc2n1CCC2
2. COc1ccc(CCNCc2ccco2)cc1OC

[17.2, -0.0184]
